- Test system: Pseudomonas aeruginosa PA14
- assay: In vitro antibacterial activity (growth inhibition, OD600), P. aeruginosa
- Assay type: cell-based
- reportedConditions: PA14, 50 μM compound, Table 1 and main text, read-out: PA14 inh. at 50 μM
inhibition at 50 µM values, listed per item
Kindly provide the numeric value in % only, without the unit symbol.

Solved cases (5 shown):
compound: O=C(Nc1cccc(CN2CCNCC2)c1)c1cc(-c2cc(Cl)ccc2O)[nH]n1
numericValue: 50
--
compound: N=C(N)NCc1ccc(NC(=O)c2cc(-c3cc(Cl)ccc3O)[nH]n2)cc1
numericValue: 41
--
compound: O=C(Nc1ccc(CNC2=NCCN2)cc1)c1cc(-c2cc(Cl)ccc2O)[nH]n1
numericValue: 10
--
compound: N=C(N)NCc1cccc(NC(=O)c2cc(-c3cc(Cl)ccc3O)[nH]n2)c1
numericValue: 56
--
compound: N=C(N)N1CCN(c2cc(NC(=O)c3cc(-c4cc(Cl)ccc4O)[nH]n3)ccc2C(F)(F)F)CC1 [Compound 13G]
numericValue: 17

Enquiry: Quick one: give measured inhibition at 50 µM for N=C(N)NCc1ccc(NC(=O)c2cc(-c3cc(Cl)ccc3O)[nH]n2)cc1C(F)(F)F [Compound 10G]
Return: 55

Enquiry: Quick one: give measured inhibition at 50 µM for O=C(Nc1ccc(N2CCNCC2)cc1)c1cc(-c2cc(Cl)ccc2O)[nH]n1
Return: 63

Enquiry: Quick one: give measured inhibition at 50 µM for O=C(Nc1ccc(CNC2=NCCN2)c(C(F)(F)F)c1)c1cc(-c2cc(Cl)ccc2O)[nH]n1 [Compound 10C]
Return: 29

Enquiry: Quick one: give measured inhibition at 50 µM for N=C(N)N1CCN(c2cccc(NC(=O)c3cc(-c4cc(Cl)ccc4O)[nH]n3)c2)CC1
Return: 31

Enquiry: Quick one: give measured inhibition at 50 µM for N=C(N)N1CCN(c2cc(NC(=O)c3cc(-c4cc(Cl)ccc4O)[nH]n3)cc(C(F)(F)F)c2)CC1 [Compound 11G]
Return: 25

Enquiry: Quick one: give measured inhibition at 50 µM for NCc1cccc(NC(=O)c2cc(-c3cc(Cl)ccc3O)[nH]n2)c1
Return: 44

----------
- assay: In vitro cytotoxicity by XTT assay
- Assay type: cell-based
- reportedConditions: human, human monocyte-derived macrophages (hMdM)
CC90 at 24 h values, listed per item

Solved cases (3 shown):
compound: N=C(N)N1CCN(c2cc(NC(=O)c3cc(-c4cc(Cl)ccc4O)[nH]n3)cc(C(F)(F)F)c2)CC1 [Compound 11G]
CC90 at 24 h: > 32 µM

compound: N=C(N)NCc1ccc(NC(=O)c2cc(-c3cc(Cl)ccc3O)[nH]n2)cc1C(F)(F)F [Compound 10G]
CC90 at 24 h: > 32 µM

compound: N=C(N)N1CCN(c2cc(NC(=O)c3cc(-c4cc(Cl)ccc4O)[nH]n3)ccc2C(F)(F)F)CC1 [Compound 13G]
CC90 at 24 h: > 32 µM

Now consider a different compound.
Enquiry: Quick one: give measured CC90 at 24 h for N=C(N)N1CCN(c2ccc(NC(=O)c3cc(-c4cc(Cl)ccc4O)[nH]n3)cc2C(F)(F)F)CC1 [Compound 12G]
Return: 32 µM

----------
- Test system: Streptococcus pneumoniae (DSM20566)
- assay: In vitro antibacterial activity (MIC), S. pneumoniae
- Assay type: cell-based
- reportedConditions: Streptococcus pneumoniae, DSM20566; Table S2, with standard deviation; read-out: Sp MIC95
MIC values, listed per item
Kindly provide the numeric value in µM only, without the unit symbol.

Solved cases (5 shown):
molecule: N=C(N)N1CCN(c2cc(NC(=O)c3cc(-c4cc(Cl)ccc4O)[nH]n3)ccc2C(F)(F)F)CC1 [Compound 13G]
unitSpec: µM
MIC: 16
//
molecule: N=C(N)N1CCN(c2ccc(NC(=O)c3cc(-c4cc(Cl)ccc4O)[nH]n3)cc2C(F)(F)F)CC1 [Compound 12G]
unitSpec: µM
MIC: 31
//
molecule: NCc1cccc(NC(=O)c2cc(-c3cc(Cl)ccc3O)[nH]n2)c1 [Compound 7A]
unitSpec: µM
MIC: 43
//
molecule: N=C(N)NCc1ccc(NC(=O)c2cc(-c3cc(Cl)ccc3O)[nH]n2)cc1C(F)(F)F [Compound 10G]
unitSpec: µM
MIC: 16
//
molecule: O=C(Nc1cccc(CN2CCNCC2)c1)c1cc(-c2cc(Cl)ccc2O)[nH]n1 [Compound 3A]
unitSpec: µM
MIC: 40

Enquiry: Quick one: give measured MIC for O=C(Nc1ccc(C(F)(F)F)c(N2CCNCC2)c1)c1cc(-c2cc(Cl)ccc2O)[nH]n1 [Compound 13A]
Return: 29
